Reported values of growth for individual entries
system: U251 CNS; assay: NCI-60 one-dose screen, 48 h (100 = growth as untreated, 0 = no growth, -100 = all killed); settings: 10 µM unless noted
This is part of a sample that, as a whole, favours compounds with a hit. Of some 83,000 tested, about 20% had one in any assay.
Recorded metric: growth (%)

{"Molecule": "N#C/C(=C/c1c(O)ccc2ccccc12)C(N)=O", "Study target": "U251 CNS", "Uom": "%", "Value": 103}
{"Molecule": "CCC(O)c1ccccc1 (configuration not stated)", "Study target": "U251 CNS", "Uom": "%", "Value": 102}
{"Molecule": "CNC(=O)c1cccnc1", "Study target": "U251 CNS", "Uom": "%", "Value": 92.3}
{"Molecule": "O=[N+]([O-])c1ccc(-n2[nH]nnc2=S)cc1", "Study target": "U251 CNS", "Uom": "%", "Value": 108}
{"Molecule": "COc1cc(C(=O)N/N=C/c2ccc(N(C)C)cc2)cc(OC)c1OC", "Study target": "U251 CNS", "Uom": "%", "Value": 3.96}
{"Molecule": "CC(=O)C(/C=N/C(N)=O)=C(/C)O", "Study target": "U251 CNS", "Uom": "%", "Value": 99.6}
{"Molecule": "CCCCCCCCCCCCOc1ccccc1C=O", "Study target": "U251 CNS", "Uom": "%", "Value": 87.4}
{"Molecule": "CC1=C(/C=C/C(C)=C/C=C/C(C)=C/C(=O)Nc2ccc(O)cc2)C(C)(C)CCC1", "Study target": "U251 CNS", "Uom": "%", "Value": 66.8}
{"Molecule": "CCOC(=O)c1sc(N)nc1-c1ccccc1", "Study target": "U251 CNS", "Uom": "%", "Value": 98.8}
{"Molecule": "O=C(N/N=C/c1ccc2c(c1)OCO2)c1ccncc1", "Study target": "U251 CNS", "Uom": "%", "Value": 104}
{"Molecule": "CN(Cc1ccccc1)Cc1ccccc1", "Study target": "U251 CNS", "Uom": "%", "Value": 99}
{"Molecule": "O=C1c2c(O)cc(O)cc2OC(c2ccc(O)c(O)c2)C1O (configuration not stated)", "Study target": "U251 CNS", "Uom": "%", "Value": 102}
{"Molecule": "Fc1ccccc1Nc1n[nH]c(=S)s1", "Study target": "U251 CNS", "Uom": "%", "Value": 101}
{"Molecule": "Cc1c(Cl)cccc1NCN1C(=O)c2ccccc2C1=O", "Study target": "U251 CNS", "Uom": "%", "Value": 95.5}
{"Molecule": "Clc1nc(Oc2ccccc2)nc(-c2cn(-c3ccccc3)c3ccccc23)n1", "Study target": "U251 CNS", "Uom": "%", "Value": 47.2}
{"Molecule": "CCN(CC)C(=O)c1cccnc1", "Study target": "U251 CNS", "Uom": "%", "Value": 96.2}
{"Molecule": "S=C1SCN(Cc2ccccc2)CN1Cc1ccccc1", "Study target": "U251 CNS", "Uom": "%", "Value": 80.2}
{"Molecule": "O=C=NC(c1ccccc1)(c1ccccc1)c1ccccc1", "Study target": "U251 CNS", "Uom": "%", "Value": 99.4}
{"Molecule": "Cc1ccc2nc3c(nc2c1)-c1cccc2cccc-3c12", "Study target": "U251 CNS", "Uom": "%", "Value": 78.8}
{"Molecule": "CC1=NN(c2ccccc2)C(=O)C1C(=O)c1ccccc1 (configuration not stated)", "Study target": "U251 CNS", "Uom": "%", "Value": 94.4}
{"Molecule": "O=C(CCc1ccc(O)cc1)N/N=C/c1cc(Br)ccc1O", "Study target": "U251 CNS", "Uom": "%", "Value": 49.2}
{"Molecule": "O=C(O)c1cc(C(=O)O)cc([N+](=O)[O-])c1", "Study target": "U251 CNS", "Uom": "%", "Value": 100}
{"Molecule": "OCc1ccccn1", "Study target": "U251 CNS", "Uom": "%", "Value": 102}
{"Molecule": "NCCSC(C[N+](=O)[O-])c1ccccc1Cl (configuration not stated)", "Study target": "U251 CNS", "Uom": "%", "Value": 77.6}
{"Molecule": "CC(/C=N/N1C(=O)c2ccccc2C1=O)c1ccccc1 (configuration not stated)", "Study target": "U251 CNS", "Uom": "%", "Value": 99.5}
{"Molecule": "CCC(=O)C(CC)c1cccc(OC)c1 (configuration not stated)", "Study target": "U251 CNS", "Uom": "%", "Value": 99.4}
{"Molecule": "C[N+](C)(C)CN1C(=O)c2ccccc2C1=O", "Study target": "U251 CNS", "Uom": "%", "Value": 102}
